Data origin, for the record: patent US12466822B2

Target: PD-1/PD-L1 protein/protein interaction (recombinant human PD-L1 protein (19-238), recombinant human PD-1 protein (25-167)) (Homo sapiens, UniProt Q9NZQ7)
Construct: Recombinant human PD-L1 protein (19-238) with a His-tag at the C-terminus; purchased AcroBiosystems PD1-H5229 (PD-L1-His); PD1-H5257 (PD-1-Fc)
Sequence (Q9NZQ7 19-238): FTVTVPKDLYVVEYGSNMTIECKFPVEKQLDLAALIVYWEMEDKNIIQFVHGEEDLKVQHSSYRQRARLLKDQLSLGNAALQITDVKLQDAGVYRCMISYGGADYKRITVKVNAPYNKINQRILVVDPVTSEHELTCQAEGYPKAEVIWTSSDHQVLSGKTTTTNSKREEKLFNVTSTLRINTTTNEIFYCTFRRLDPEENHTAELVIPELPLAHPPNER
Assay: PD-1/PD-L1 Homogeneous Time-Resolved Fluorescence (HTRF) Binding Assay
Conditions: 25° C., PBS buffer (pH 7.4), 40 minutes preincubation with inhibitors
pIC50: −log10 of the molar value.
measuredParameter: pIC50

Examples with answers:
- compound: "Cc1c(Nc2nccc3cc(CN4CC(C(=O)O)C4)cnc23)cccc1-c1cccc(Nc2nccc3cc(CN4CC[C@@H](O)C4)cnc23)c1Cl"
  pIC50: "≥ 8.00"
- compound: "Cn1c(C(=O)Nc2cccc(-c3cccc(Nc4nccc5cc(CN6CC[C@@H](O)C6)cnc45)c3Cl)c2Cl)nc2c1CCN(CC[C@H]1CC[C@H](C(=O)O)CC1)C2"
  pIC50: "≥ 8.00"
- compound: "Cc1c(-c2nc3c(s2)CN(C(=O)CN2CC(O)C2)C3)cccc1-c1cccc(Nc2nccc3cc(CN4CC[C@@H](C(=O)O)C4)cnc23)c1Cl"
  pIC50: "≥ 8.00"
- compound: "Cc1c(Nc2nccc3cc(CNCCO)cnc23)cccc1-c1cccc(Nc2nccc3cc(CNCCO)cnc23)c1C"
  pIC50: "≥ 8.00"
- compound: "Cc1c(Nc2nccc3cc(CN[C@H](C)CO)cnc23)cccc1-c1cccc(NC(=O)c2nc3c(n2C)CCN(CC[C@H]2CC[C@H](C(=O)O)CC2)C3)c1Cl"
  pIC50: "≥ 8.00"

GET /values?readout=pIC50&item= `Cc1c(-c2nc3c(s2)CN(C(=O)CN2CC[C@@H](O)C2)C3)cccc1-c1cccc(Nc2nccc3cc(CN4CC[C@@H](C(=O)O)C4)cnc23)c1Cl` ≥ 8.00

Param item = `O[C@@H]1CCN(Cc2cnc3c(Nc4cccc(-c5cccc(Nc6nccc7cc(CN8CC[C@@H](O)C8)cnc67)c5Cl)c4Cl)nccc3c2)C1` ; retrieve measured pIC50. ≥ 8.00

# lookup: pIC50 of `Cc1c(Nc2nccc3cc(CN4CC[C@@H](O)C4)cnc23)cccc1-c1cccc(-c2nc3c(o2)CN(C(=O)CN(C)C)C3)c1C` ≥ 8.00

---

The entries below come with measured pIC50 values attached.
Biological target: PD-1/PD-L1 protein/protein interaction (recombinant human PD-L1 protein (19-238), recombinant human PD-1 protein (25-167)) (Homo sapiens, UniProt Q9NZQ7)
Construct: Recombinant human PD-L1 protein (19-238) with a His-tag at the C-terminus; PD1-H5257 (PD-1-Fc)
Experiment: PD-1/PD-L1 Homogeneous Time-Resolved Fluorescence (HTRF) Binding Assay
Details: 25° C., PBS buffer (pH 7.4), 40 minutes preincubation with inhibitors
pIC50: −log10 of the molar value.

The examples below pair each entry with its known result.
- entrySmiles: "Cc1c(Nc2nccc3cc(CNCCO)cnc23)cccc1-c1cccc(NC(=O)c2ccc(CNC3(C(=O)O)CCC3)cn2)c1F"
  pIC50: "≥ 8.00"
- entrySmiles: "Cc1c(Nc2nccc3cc(CN4CC[C@H](O)C4)cnc23)cccc1-c1cccc(Nc2nccc3cc(CN4CC[C@@H](O)C4)cnc23)c1Cl"
  pIC50: "≥ 8.00"

Record request: pIC50 value, item `Cc1c(Nc2nccc3cc(CN4CC[C@@](C)(O)C4)cnc23)cccc1-c1cccc(NC(=O)c2nc3c(n2C)CCN(C[C@H]2CC[C@@H](C(=O)O)CC2)C3)c1Cl` ≥ 8.00
